- System: rodent lifetime carcinogenesis bioassay, tumor incidence TD50
- method: carcinogenic potency in animals, long-term in vivo studies, CPDB compilation (AID 1745844)
- condition notes: mouse; strain B6C3F1; females; in feed; site: liver; lesion: several types; types named in the paper; dosed 79 weeks; study length 79 weeks
observed property: TD50 (mg/kg/day)
One number for each entry, in mg/kg/day.

Please look at CC(C)CCCCCCOC(=O)c1ccccc1C(=O)OCCCCCCC(C)C and tell me its recorded TD50 on rodent lifetime carcinogenesis bioassay, tumor incidence TD50.
2860

###

- Test system: rodent lifetime carcinogenesis bioassay, tumor incidence TD50
- method: carcinogenic potency in animals, long-term in vivo studies, CPDB compilation (AID 1745844)
- condition notes: rat; strain Sprague-Dawley; females; i.p.; site: all sites; lesion: lymphoma; dosed 26 weeks; study length 80 weeks
observed property: TD50

Entry CNNCc1ccc(C(=O)NC(C)C)cc1 needs its TD50 filled in; supply it.
4.48 mg/kg/day

###

- System: rodent lifetime carcinogenesis bioassay, tumor incidence TD50
- method: carcinogenic potency in animals, long-term in vivo studies, CPDB compilation (AID 1745844)
- condition notes: rat; strain Sprague-Dawley; females; in feed; site: any site (literature study); lesion: several types; types named in the paper; dosed 52 weeks; study length 52 weeks
observed property: TD50 (mg/kg/day)
Give bare numbers, in mg/kg/day.

Output TD50 of CC(C)(C)c1cc([N+](=O)[O-])cc([N+](=O)[O-])c1OS(C)(=O)=O
2.66

###

- System: rodent lifetime carcinogenesis bioassay, tumor incidence TD50
- method: carcinogenic potency in animals, long-term in vivo studies, CPDB compilation (AID 1745844)
- condition notes: mouse; strain B6C3F1; females; in feed; site: liver; lesion: hepatocellular adenoma + hepatocellular carcinoma; dosed 103 weeks; study length 105 weeks
observed property: TD50

INSERT INTO results (compound, observed_property, result) VALUES
  ('Nc1cccc2c(N)cccc12', 'TD50', '129 mg/kg/day'),
  ('N=C1C=CC(=C(c2ccc(N)cc2)c2ccc(N)cc2)C=C1', 'TD50', '20.3 mg/kg/day'),
  ('CC(=O)Nc1ccc(N=Nc2cc(C)ccc2O)cc1', 'TD50', '1020 mg/kg/day');

// moving on: another record for TD50
Input CCCCC(CC)COC(=O)CCCCC(=O)OCC(CC)CCCC (centres undefined) , output reported TD50.
3840 mg/kg/day

###

- System: rodent lifetime carcinogenesis bioassay, tumor incidence TD50
- method: carcinogenic potency in animals, long-term in vivo studies, CPDB compilation (AID 1745844)
- condition notes: mouse; strain Swiss albino; females; in drinking water; site: lung; lesion: adenoma; dosed 83 weeks; study length 83 weeks
Exercise: for every item that follows, state its recorded TD50.
Numbers only, in mg/kg/day.

INSERT INTO measurements (compound_structure_string, result_number) VALUES
  ('O=CNNC=O', 561);

Param request: TD50 | system rodent lifetime carcinogenesis bioassay, tumor incidence TD50 | item C=CCNNCC=C
47.9

###

- Test system: rodent lifetime carcinogenesis bioassay, tumor incidence TD50
- method: carcinogenic potency in animals, long-term in vivo studies, CPDB compilation (AID 1745844)
- condition notes: rat; strain Fischer 344; females; in feed; site: liver; lesion: hepatocellular adenoma + hepatocellular carcinoma; dosed 104 weeks; study length 104 weeks
observed property: TD50

Give the value of TD50 reported for the following: Brc1cc(Br)c(-c2cc(Br)c(Br)cc2Br)cc1Br
0.656 mg/kg/day

###

- Test system: rodent lifetime carcinogenesis bioassay, tumor incidence TD50
- method: carcinogenic potency in animals, long-term in vivo studies, CPDB compilation (AID 1745844)
- condition notes: rat; strain Fischer 344; males; by gavage; site: colon + kidney + rectum; lesion: adenocarcinoma, NOS + adenomatous polyp, NOS + tubular-cell adenoma + tubular-cell adenocarcinoma; dosed 102 weeks; study length 104 weeks
observed property: TD50 (mg/kg/day)
Numbers only, in mg/kg/day.

Quote rodent lifetime carcinogenesis bioassay, tumor incidence TD50 TD50 for entry ClC(Cl)Br .
30.3

###

- Tested on: rodent lifetime carcinogenesis bioassay, tumor incidence TD50
- method: carcinogenic potency in animals, long-term in vivo studies, CPDB compilation (AID 1745844)
- condition notes: rat; strain F344/DuCrj; males; in drinking water; site: thyroid gland; lesion: several types; types named in the paper; dosed 104 weeks; study length 108 weeks
observed property: TD50 (mg/kg/day)
Give bare numbers, in mg/kg/day.

Find the measured TD50 of CC(=O)OC/C=C(C)/C=C/C=C(C)/C=C/C1=C(C)CCCC1(C)C and report it.
976

###

- System: rodent lifetime carcinogenesis bioassay, tumor incidence TD50
- method: carcinogenic potency in animals, long-term in vivo studies, CPDB compilation (AID 1745844)
- condition notes: hamster; strain Syrian Golden; males; in drinking water; site: liver; lesion: several types; types named in the paper; dosed 71 weeks; study length 71 weeks
observed property: TD50

Name the recorded TD50 of the item CNNC in your answer.
2.05 mg/kg/day

###

- System: rodent lifetime carcinogenesis bioassay, tumor incidence TD50
- method: carcinogenic potency in animals, long-term in vivo studies, CPDB compilation (AID 1745844)
- condition notes: mouse; strain Swiss albino; females; in drinking water; site: lung; lesion: several types; types named in the paper; dosed 118 weeks; study length 118 weeks
observed property: TD50

Look up and report measured TD50 for this entry: NNC(N)=O
223 mg/kg/day

###

For each of the compounds below, state its TD50.
- Test system: rodent lifetime carcinogenesis bioassay, tumor incidence TD50
- method: carcinogenic potency in animals, long-term in vivo studies, CPDB compilation (AID 1745844)
- condition notes: mouse; strain B6C3F1; females; in feed; site: liver; lesion: several types; types named in the paper; dosed 104 weeks; study length 104 weeks

INSERT INTO assay_data (compound_structure_string, tested_on, result) VALUES
  ('CC(C)CCCCCCOC(=O)c1ccccc1C(=O)OCCCCCCC(C)C', 'rodent lifetime carcinogenesis bioassay, tumor incidence TD50', '1440 mg/kg/day'),
  ('Cc1cc(C)nc(NS(=O)(=O)c2ccc(N)cc2)n1', 'rodent lifetime carcinogenesis bioassay, tumor incidence TD50', '8740 mg/kg/day'),
  ('O=C1c2ccccc2C(=O)N1SC(Cl)(Cl)Cl', 'rodent lifetime carcinogenesis bioassay, tumor incidence TD50', '18900 mg/kg/day');

Find the measured TD50 of CC(C)(CCCOc1ccc(OCCCC(C)(C)C(=O)O)c(-c2ccccc2)c1)C(=O)O and report it.
72.3 mg/kg/day

###

- System: rodent lifetime carcinogenesis bioassay, tumor incidence TD50
- method: carcinogenic potency in animals, long-term in vivo studies, CPDB compilation (AID 1745844)
- condition notes: mouse; strain B6C3F1; females; in feed; site: lung; lesion: several types; types named in the paper; dosed 80 weeks; study length 90 weeks
observed property: TD50 (mg/kg/day)
Numbers only, in mg/kg/day.

Give reported TD50 value for Cc1c([N+](=O)[O-])c(C)c([N+](=O)[O-])c(C(C)(C)C)c1[N+](=O)[O-]
1300

###

- Test system: rodent lifetime carcinogenesis bioassay, tumor incidence TD50
- method: carcinogenic potency in animals, long-term in vivo studies, CPDB compilation (AID 1745844)
- condition notes: mouse; strain CD-1 HaM/ICR; males; in feed; site: liver; lesion: several types; types named in the paper; dosed 77 weeks; study length 94 weeks
Active and inactive are the calls of the source. How the calls were made is not given here.
Hi there, I'd appreciate the recorded TD50 for every entry that follows.

Here are 3 compounds together with their reported answers.
INSERT INTO results (compound_structure_string, tested_on, result) VALUES
  ('Nc1ccc(Cc2ccc(N)c(Cl)c2)cc1Cl', 'rodent lifetime carcinogenesis bioassay, tumor incidence TD50', '471 mg/kg/day'),
  ('Nc1ccc(-c2ccc(N)c(N)c2)cc1N', 'rodent lifetime carcinogenesis bioassay, tumor incidence TD50', '4170 mg/kg/day (inactive)'),
  ('O=[N+]([O-])c1ccc(Cl)c([N+](=O)[O-])c1', 'rodent lifetime carcinogenesis bioassay, tumor incidence TD50', '365 mg/kg/day (inactive)');

Output measured TD50 for this item: Nc1c(F)c(N)c(F)c(F)c1F
78.3 mg/kg/day

###

- System: rodent lifetime carcinogenesis bioassay, tumor incidence TD50
- method: carcinogenic potency in animals, long-term in vivo studies, CPDB compilation (AID 1745844)
- condition notes: rat; strain Fischer 344; females; in drinking water; site: liver; lesion: hepatocellular adenoma + hepatocellular carcinoma + neoplastic nodule; dosed 60 weeks; study length 60 weeks
observed property: TD50 (mg/kg/day)
Give bare numbers, in mg/kg/day.

Provide TD50, system rodent lifetime carcinogenesis bioassay, tumor incidence TD50, entry Cc1cc(-c2ccc(N)c(C)c2)ccc1N
6.97

###

- Tested on: rodent lifetime carcinogenesis bioassay, tumor incidence TD50
- method: carcinogenic potency in animals, long-term in vivo studies, CPDB compilation (AID 1745844)
- condition notes: mouse; strain B6C3F1; females; in feed; site: liver; lesion: hepatocellular carcinoma; dosed 103 weeks; study length 111 weeks
observed property: TD50

Consider the molecule Nc1cc(Cl)c(N)c(Cl)c1 . State its measured TD50.
2030 mg/kg/day
